# Test system: NCI-H460 lung
# protocol details: NCI-60 one-dose screen, 48 h (100 = growth as untreated, 0 = no growth, -100 = all killed)
# experimental parameters: 10 µM unless noted
# Procedure: Growth inhibition of the NCI-H460 human Non-Small Cell Lung tumor cell line is measured as a screen for anti-cancer activity. Cells are grown in 96 well plates and exposed to the test compound for 48 hours. Compounds are tested at a single concentration, which is 10^-5 M for most compounds. The reported endpoint is percent growth (GI% or GIPRCNT), where numbers from 0 - 100% represent growth inhibition, and numbers from -100% - 0 represent cell death. […]
The panel holds about 83,000 compounds, 20% with a hit somewhere; the sample as a whole holds those more often.
measurement kind: growth (%)
Reply numerically in %, unit not repeated.

As a guide, the following entries are already answered.
• CCc1ccc(/C=C/c2ccc(O)c3ncccc23)[n+](C)c1 = 17.2
• O=C1CSC(c2c(F)cccc2Cl)N1NC(=O)C(O)(c1ccccc1)c1ccccc1 (configuration not stated) = 113
• C=CC(=O)N(C)[C@H]1C[C@H]2OC(C)(C1OC)n1c3ccccc3c3c4c(c5c6ccccc6n2c5c31)C(=O)NC4 (some centres not stated) = 1.35
• COc1ccc2c(CCCC(c3ccccc3)c3ccccc3)c3[n+](cc2c1OC)CCc1cc2c(cc1-3)OCO2 = -53
• COC(=O)CNC(=O)[C@@H](OC)[C@@H]1Cc2cc3cc(OC4CC(OC5CC(O)C(O)C(C)O5)C(O)C(C)O4)c(C)c(O)c3c(O)c2C(=O)[C@H]1OC1CC(OC2CC(OC3CC(C)(O)C(O)C(C)O3)C(O)C(C)O2)C(O)C(C)O1 (some centres not stated) = 9.15
• Clc1ccc2c(NCCNc3nc(N4CCCC4)nc4ccccc34)ccnc2c1 = -23.6
• COc1ccc(-c2cc3c(oc2=O)-c2ccccc2OC3OC(C)=O)cc1 (configuration not stated) = 104
• Cc1c(CN2CCN(C(=O)[C@H](C)O)CC2)sc2c(N3CCOCC3)nc(-c3cnc(N)nc3)nc12 = 3
• CCc1cc2c(cc1N1CCC(N3CCOCC3)CC1)C(C)(C)c1[nH]c3cc(C#N)ccc3c1C2=O = 1.34
• Nc1nc(N)c2nc(-c3cccc(O)c3)c(-c3cccc(O)c3)nc2n1 = 92.8

INPUT: If you can, please state the reported growth value of CCCCn1c(C)nc2ccc(Nc3nc(N4CCN(C)CC4)nc4nc[nH]c34)cc21 .
OUTPUT: 104

INPUT: If you can, please state the reported growth value of O=[N+]([O-])c1cc(Br)cc2c1[nH]c1ccc(Br)cc12 .
OUTPUT: 73.5

* * *

# Test system: SW-620 colon
# protocol details: NCI-60 one-dose screen, 48 h
# experimental parameters: 10 µM unless noted
# Description: Growth inhibition of the SW-620 human tumor cell line is measured as a screen for anti-cancer activity. Cells are grown in 96 well plates and exposed to the test compound for 48 hours. Compounds are tested at a single concentration, which is 10^-5 M for most compounds. The reported endpoint is percent growth (GI% or GIPRCNT), where numbers from 0 - 100% represent growth inhibition, and numbers from -100% - 0 represent cell death. For example, a value of 40 represents 60% growth inhibition. […]
This is part of a sample that, as a whole, favours compounds with a hit. Of some 83,000 tested, about 20% had one in any assay. Calls of active or inactive are those of the source. The calls were made as follows: active = growth percent below 10; inactive = the rest.
Outcome field: choose from TRUE for active, FALSE for inactive

• Cc1ccc(NC(=O)NC(=O)CSc2nc3ccccc3nc2C)cc1 = FALSE

INPUT: Outcome logged for COc1cc2c(Oc3ccc(NC(=O)C4(C(=O)Nc5ccc(F)cc5)CC4)cc3F)ccnc2cc1OCCCN1CCOCC1 in this assay:
OUTPUT: TRUE

INPUT: Outcome logged for O=C(O)c1ccc(Nc2ncc3c(n2)-c2ccc(Cl)cc2C(c2c(F)cccc2F)=NC3)cc1 in this assay:
OUTPUT: FALSE

INPUT: Outcome logged for Oc1ccc(C(c2ccc(O)cc2)C(Cl)(Cl)Cl)cc1 in this assay:
OUTPUT: FALSE

INPUT: Outcome logged for CCN1CCN(Cc2ccc(NC(=O)Nc3nc(-c4cc(OC)c(OC)c(OC)c4)cs3)cc2C(F)(F)F)CC1 in this assay:
OUTPUT: TRUE

INPUT: Outcome logged for Cc1cccc(NC(=O)[C@@H]2c3ccccc3C(=O)N(c3ccc(Cl)cc3)[C@H]2c2ccc(Cl)cc2)n1 in this assay:
OUTPUT: FALSE

INPUT: Outcome logged for Cc1cc(N(CCNc2ccnc3cc(Cl)ccc23)Cc2ccc3c(c2)OCO3)nc(N2CCN(C)CC2)n1 in this assay:
OUTPUT: TRUE

INPUT: Outcome logged for CCNCCNc1cc(-c2ccc(Cl)c(Cl)c2)c(C#N)c2nc3ccccc3n12 in this assay:
OUTPUT: TRUE

INPUT: Outcome logged for CCCCCCCCCNCCCCCCCCC in this assay:
OUTPUT: FALSE
